The reported numbers originate from patent US10624968B2.

Test system: L540 cells
Experiment: Cytotoxicity in L540 cells in presence and absence of 1 mM bacitracin (ATPlite, 72 hour exposure)
Format: cell-based
Settings: read-out: IC50 with 1 mM bacitracin, 72 hour exposure, + 1 mM bacitracin
pIC50: −log10 of the molar value. Non-standard residues stand in square brackets, D forms with d. Residues, ends and D or L forms follow the SMILES beside them. *: point of attachment. Dolaproine = CO[C@@H]([C@@H]1CCCN1)[C@@H](C)C(=O)O; Dil = CC[C@H](C)[C@H](NC)[C@@H](CC(=O)O)OC; X1 = C[C@@H](N*)[C@@H](O)c1ccccc1; NMeV = CN[C@H](C(=O)O)C(C)C
assay.readout: pIC50

INSERT INTO results (molecule, recorded_result) VALUES
  ('COc1cc2cc(c1Cl)N(C)C(=O)C[C@H](OC(=O)[C@H](C)N(C)C(=O)CCSSC)[C@]1(C)O[C@H]1[C@H](C)[C@@H]1C[C@@](O)(NC(=O)O1)[C@H](OC)/C=C/C=C(\C)C2', 7.92),
  ('CC[C@H](C)[C@@H]([C@@H](CC(=O)N1CCC[C@H]1[C@H](OC)[C@@H](C)C(=O)N[C@H](C)[C@@H](O)c1ccccc1)OC)N(C)C(=O)[C@@H](NC(=O)[C@@H](NC)C(C)C)C(C)C [MMAE, monomethyl auristatin E] (H-[NMeV]V[Dil][Dolaproine]-X1)', 9.55);
